Test system: low affinity form of PDE 4 (LPDE 4)
Test: PDE 4 catalytic activity assay (low affinity form)
Format: biochemical, human
Conditions: HPDE 4 IC50 divided by LPDE 4 IC50
Let's look at some molecules and their measured High/Low Ratio (IC50 high affinity / IC50 low affinity).
measurement.type: High/Low Ratio (IC50 high affinity / IC50 low affinity)

INSERT INTO assay_data (molecule, readout_value) VALUES
  ('COc1ccc(C2CCN(Cc3ccc(NC(=NC#N)SC)cc3)C2=O)cc1OC1CCCC1 (centres unmarked)', 0.30),
  ('COc1ccc(C2CN(Cc3ccc(N)cc3)C(=O)N2)cc1OC1CCCC1 (centres unmarked)', 0.07),
  ('CC(C)Cn1c(=O)n(C)c(=O)c2[nH]cnc21 [IBMX, reference compound]', 0.698),
  ('CCOC(=O)C=C1C[C@@H](c2ccc(OC)c(OC3CCCC3)c2)CN1', '.98'),
  ('COc1ccc(C2CCC(c3nnn[nH]3)C2)cc1OC1CCCC1 (centres unmarked)', 0.0018);

====

Target: high affinity rolipram binding site of PDE 4 (HPDE 4)
Construct: Rat brain high speed supernatants were used as a source of protein
Experiment: [3H]-rolipram binding assay (high affinity site)
Settings: competition with 1 nM [3H]-rolipram, rat brain high speed supernatants, 1 hour at 30° C.
Protocol: Rat brain high speed supernatants were used as a source of protein. […] The assay was run for 1hour at 30° C. The reaction was terminated and bound ligand was separated from free ligand using a Brandel cell harvester. Competition for the high affinity binding site was assessed under conditions that were identical to those used for measuring low affinity PDE activity, expect that [^3H]-cAMP was not present.
pIC50: −log10 of the molar value.
measurement.type: pIC50

INSERT INTO results (molecule, measurement_type, readout_value) VALUES
  ('COc1ccc(C2CN(Cc3ccc(N)cc3)C(=O)N2)cc1OC1CCCC1 (stereo not drawn)', 'pIC50', 7.00),
  ('NC(=O)C(=O)NCCc1ccc(OC(F)F)c(OC(F)F)c1', 'pIC50', 6.40),
  ('CCCCOc1cc(CC2CNC(=O)N2)ccc1OC (stereo not drawn) [Ro 20-1724, reference compound]', 'pIC50', 6.72);
